tested on: gluten-reactive T cells; assay: 96-well plate whole blood cytokine release, IP-10 by MAGPIX multiplex bead assay; assay type: cell-based, human; conditions: Subject 5; after oral gluten challenge; Max. 9336 pg/mL
Non-standard residues stand in square brackets, D forms with d. pGlu = O=C1CC[C@@H](C(=O)O)N1
PARAMETER_MEASURED: Percent of maximal response to individual gluten peptides, IP-10

q: Identify measured Percent of maximal response to individual gluten peptides, IP-10 corresponding to (pE)QPFPQPEQPFSQQ-amide ([pGlu]QPFPQPEQPFSQQ-NH2; SMILES NC(=O)CC[C@H](NC(=O)[C@H](CCC(N)=O)NC(=O)[C@H](CO)NC(=O)[C@H](Cc1ccccc1)NC(=O)[C@@H]1CCCN1C(=O)[C@H](CCC(N)=O)NC(=O)[C@H](CCC(=O)O)NC(=O)[C@@H]1CCCN1C(=O)[C@H](CCC(N)=O)NC(=O)[C@@H]1CCCN1C(=O)[C@H](Cc1ccccc1)NC(=O)[C@@H]1CCCN1C(=O)[C@H](CCC(N)=O)NC(=O)[C@@H]1CCC(=O)N1)C(N)=O) [Peptide 7]
a: 12 % of max

====

test system: gluten-reactive T cells; experiment: 96-well plate whole blood cytokine release, IFNγ by MAGPIX multiplex bead assay; assay type: cell-based, human; settings: Subject 9; after oral gluten challenge; Max. 67 pg/mL
Non-standard residues stand in square brackets, D forms with d. pGlu = O=C1CC[C@@H](C(=O)O)N1
Attribute: Percent of maximal response to individual gluten peptides, IFNg

The examples below pair each entry with its known result.
SUBSTANCE | VAL
(pE)QPFPQPELPYPYPQ-amide ([pGlu]QPFPQPELPYPYPQ-NH2; SMILES CC(C)C[C@H](NC(=O)[C@H](CCC(=O)O)NC(=O)[C@@H]1CCCN1C(=O)[C@H](CCC(N)=O)NC(=O)[C@@H]1CCCN1C(=O)[C@H](Cc1ccccc1)NC(=O)[C@@H]1CCCN1C(=O)[C@H](CCC(N)=O)NC(=O)[C@@H]1CCC(=O)N1)C(=O)N1CCC[C@H]1C(=O)N[C@@H](Cc1ccc(O)cc1)C(=O)N1CCC[C@H]1C(=O)N[C@@H](Cc1ccc(O)cc1)C(=O)N1CCC[C@H]1C(=O)N[C@@H](CCC(N)=O)C(N)=O) [Peptide 16] | 39 % of max
(pE)QPFPEQPEQIIPQQP-amide ([pGlu]QPFPEQPEQIIPQQP-NH2; SMILES CC[C@H](C)[C@H](NC(=O)[C@H](CCC(N)=O)NC(=O)[C@H](CCC(=O)O)NC(=O)[C@@H]1CCCN1C(=O)[C@H](CCC(N)=O)NC(=O)[C@H](CCC(=O)O)NC(=O)[C@@H]1CCCN1C(=O)[C@H](Cc1ccccc1)NC(=O)[C@@H]1CCCN1C(=O)[C@H](CCC(N)=O)NC(=O)[C@@H]1CCC(=O)N1)C(=O)N[C@H](C(=O)N1CCC[C@H]1C(=O)N[C@@H](CCC(N)=O)C(=O)N[C@@H](CCC(N)=O)C(=O)N1CCC[C@H]1C(N)=O)[C@@H](C)CC) [Peptide 12] | 0 % of max

Proceed to the following item.
q: Annotate the substance (pE)QPYPQPELPYPQPQ-amide ([pGlu]QPYPQPELPYPQPQ-NH2; SMILES CC(C)C[C@H](NC(=O)[C@H](CCC(=O)O)NC(=O)[C@@H]1CCCN1C(=O)[C@H](CCC(N)=O)NC(=O)[C@@H]1CCCN1C(=O)[C@H](Cc1ccc(O)cc1)NC(=O)[C@@H]1CCCN1C(=O)[C@H](CCC(N)=O)NC(=O)[C@@H]1CCC(=O)N1)C(=O)N1CCC[C@H]1C(=O)N[C@@H](Cc1ccc(O)cc1)C(=O)N1CCC[C@H]1C(=O)N[C@@H](CCC(N)=O)C(=O)N1CCC[C@H]1C(=O)N[C@@H](CCC(N)=O)C(N)=O) [Peptide 15] with its measured Percent of maximal response to individual gluten peptides, IFNg.
a: 100 % of max
